Tested on: HOP-62 NSCLC
protocolDescription: NCI tumour cell line growth inhibition, 48 h; in the data active = GI50 below about 0.43 µM; inactive = the rest
Outcome codes: active, inactive

{"compound": "CC(C)(O)CCc1cccc(C(=O)c2cnn(-c3ccc(F)cc3)c2N)c1", "targetOrTestSystem": "HOP-62 NSCLC", "labelClass": "inactive"}
{"compound": "CN(C)c1cc2c(Nc3ccc4c(cnn4Cc4ccccc4)c3)ncnc2cn1", "targetOrTestSystem": "HOP-62 NSCLC", "labelClass": "inactive"}
{"compound": "COc1cc2c3c(n(CCN4CCOCC4)c(=O)c2cc1OC)-c1ccccc1C3=O", "targetOrTestSystem": "HOP-62 NSCLC", "labelClass": "inactive"}
{"compound": "C(=C\\c1ccncc1)/c1ccncc1", "targetOrTestSystem": "HOP-62 NSCLC", "labelClass": "inactive"}
{"compound": "Cc1cc(-c2nc3n(c2/C=N/N=C(N)N)CCS3)c(C)s1", "targetOrTestSystem": "HOP-62 NSCLC", "labelClass": "inactive"}
{"compound": "C=C1C(=O)O[C@H]2[C@H]1CC/C(COC(=O)CCCCCCCC(=O)OC/C1=C/CC[C@@]3(C)O[C@H]3[C@H]3OC(=O)C(=C)[C@@H]3CC1)=C\\CC[C@@]1(C)O[C@@H]21", "targetOrTestSystem": "HOP-62 NSCLC", "labelClass": "inactive"}
{"compound": "Cc1nn(Cc2ccccc2)cc1C(=O)Nc1sc2c(c1C(N)=O)CCC(=O)C2", "targetOrTestSystem": "HOP-62 NSCLC", "labelClass": "inactive"}
{"compound": "CCC[CH2][Sn]([CH2]CCC)([O]C(=O)c1cc(F)ccc1F)[O]C(=O)c1cc(F)ccc1F", "targetOrTestSystem": "HOP-62 NSCLC", "labelClass": "inactive"}
{"compound": "Cc1c(Cl)cccc1NC(=O)c1sc2nc3c(cc2c1N)C(=O)CCC3", "targetOrTestSystem": "HOP-62 NSCLC", "labelClass": "active"}
{"compound": "COC(=O)c1c2c(c(C)[n+]([O-])c1C)C(=O)C(NCc1ccc(F)cc1)=CC2=O", "targetOrTestSystem": "HOP-62 NSCLC", "labelClass": "inactive"}
{"compound": "C[C@@]1(C(=O)O)CCC[C@]2(C)C1CC[C@]13C[C@@](O)(CO)[C@](O)(CC[C@]12O)C3 (stereo not given in full)", "targetOrTestSystem": "HOP-62 NSCLC", "labelClass": "inactive"}
{"compound": "COc1cc2c(NC3CCN(C(C)C)CC3)nc(C3CCCCC3)nc2cc1OCCCN1CCCC1", "targetOrTestSystem": "HOP-62 NSCLC", "labelClass": "inactive"}
{"compound": "O=C1C(Cl)=C(Nc2cc(Cl)ccc2O)C(=O)N1Cc1ccccc1", "targetOrTestSystem": "HOP-62 NSCLC", "labelClass": "inactive"}
{"compound": "C[C@H]1COCCN1c1nc(-c2cnc(N)cc2C(F)F)nc(N2CCOCC2)n1", "targetOrTestSystem": "HOP-62 NSCLC", "labelClass": "active"}
{"compound": "Cc1ccnc2c(NC(C)CCCN)cc(O)c(O)c12 (stereo not given)", "targetOrTestSystem": "HOP-62 NSCLC", "labelClass": "inactive"}
